// provenance: ChEMBL document CHEMBL1201862

- Test system: DLD-1
- assay-procedure: NCI tumour cell line growth inhibition, 48 h
Active and inactive are the calls of the source. Rule as the data show it: active = GI50 up to about 1.1 µM and inactive = higher.
The reply should name one outcome from Y for active, N for inactive

Example results:
# compound, category-label
rows = [
    ("CCCN(CCCC(NC(C)=O)C(=O)NCc1ccccc1)C(=O)NC (centres undefined)", "N"),
    ("N/C(=N\\O)N/N=C\\c1c(O)cc(O)cc1O", "N"),
    ("N#CN1CCC=C(c2cc3ccccc3[nH]2)C1", "N"),
    ("NC(CCc1nc(-c2ccc(Cl)cc2)cs1)C(=O)O (centres undefined)", "N"),
    ("O=C1c2ccccc2OCC1/C=N/O (centres undefined)", "N"),
    ("CC(=O)[O-].Cc1ncc(CO)c(/C=N/NC(N)=S)c1[O-].[Zn+2]", "N"),
]

How did this test come out for "COc1cc(/C=C2/C(=O)N(C(=O)c3ccccc3O)N=C2C)cc(OC)c1OC" ?
Y

How did this test come out for "CC(=O)N(O)Cc1ccccc1" ?
N

How did this test come out for "O=S(=O)(c1ccccc1)C(CN1CCCCC1)S(=O)(=O)c1ccccc1" ?
N

How did this test come out for "O=C1/C(=C/c2cccc([N+](=O)[O-])c2)COc2ccccc21" ?
N

How did this test come out for "Cc1oc2c(c1C(=O)c1ccccc1)C(=O)c1ccccc1C2=O" ?
N

How did this test come out for "O=[N+]([O-])c1ccc2c(Nc3ccccc3-c3ccccc3Nc3c4ccccc4nc4cc([N+](=O)[O-])ccc34)c3ccccc3nc2c1" ?
N

How did this test come out for COc1ccc(OC(C(=O)O)c2ccccc2)c2c1CCCC2=O (centres undefined) ?
N

How did this test come out for "CN(C)c1ccc(O[Si](Oc2ccc(N(C)C)cc2)(Oc2ccc(N(C)C)cc2)Oc2ccc(N(C)C)cc2)cc1" ?
N

How did this test come out for CCOC(=O)C1C(NC(N)=O)N(Cc2ccccc2)C(=O)N1Cc1ccccc1 (centres undefined) ?
N

---

- System: NCI-H460
- assay-procedure: NCI tumour cell line growth inhibition, 48 h
Activity calls are given as the source filed them. Rule as the data show it: active = GI50 up to about 1.1 µM and inactive = higher.
# GI50 annotations

# count of solved cases: 8
# compound, GI50
measured = [
    ("O=Cc1ccc(-c2cc(C=O)c(-c3cccs3)[nH]2)s1", "25.8 µM (inactive)"),
    ("O=c1c2nn[nH]c2nc2n1CC(c1ccccc1)S2 (centres undefined)", "> 100 µM (inactive)"),
    ("O=C1CCC[C@H]2O[C@@H](COCc3ccccc3)C[C@@H]12", "> 100 µM (inactive)"),
    ("CC(C)[C@H](NC(=O)[C@H](N)Cc1ccc(N(CCCl)CCCl)cc1)C(=O)O", "> 100 µM (inactive)"),
    ("O=C(NCCO)c1cc2c(cn1)[nH]c1ccccc12", "> 100 µM (inactive)"),
    ("CC1(C)S[C@@H]2[C@H](N3C(=O)c4ccccc4C3=O)CN2[C@H]1NC(=O)N[C@@H]1N2C[C@@H](N3C(=O)c4ccccc4C3=O)[C@H]2SC1(C)C", "> 100 µM (inactive)"),
    ("Cc1cc(N(CCC#N)CCC#N)ccc1/N=N/c1ccc([N+](=O)[O-])cc1", "39.4 µM (inactive)"),
    ("COc1ccc(/C=N/n2c(Cc3ccccc3)n[nH]c2=O)c(OC)c1", "> 50.7 µM (inactive)"),
]

Tell me its GI50 on NCI-H460: "C[C@H](CCC(=O)O)[C@H]1CC[C@H]2[C@@H]3[C@H](O)[C@H](O)[C@@H]4C[C@H](O)CC[C@]4(C)[C@H]3CC[C@]12C"
> 100 µM (inactive)

Tell me its GI50 on NCI-H460: "O=c1c(Cc2ccc(Cc3c(O)oc4ccccc4c3=O)cc2)c(O)oc2ccccc12"
> 100 µM (inactive)

Tell me its GI50 on NCI-H460: COC(=O)NC(=O)NC(Cc1ccccc1)NC(=O)OCc1ccccc1 (centres undefined)
> 100 µM (inactive)

Tell me its GI50 on NCI-H460: "CC1(C)CC(C)(C)CC(O)(C2(O)CC(C)(C)CC(C)(C)C2)C1"
> 100 µM (inactive)

Tell me its GI50 on NCI-H460: "Cc1ccc(S(=O)(=O)Oc2ccc(OS(=O)(=O)c3ccc(C)cc3)c3c2C(=O)c2ccccc2C3=O)cc1"
> 100 µM (inactive)

Tell me its GI50 on NCI-H460: COC([C@@H](OC(=O)c1ccccc1)[C@H](OC(=O)c1ccccc1)C(O)COC(=O)c1ccccc1)n1cc(C)c(=O)[nH]c1=O (some centres undefined)
27.3 µM (inactive)
